Source listed as patent US20230416363A1.

Target: T1, hPD-1-his (human, UniProt Q15116 25-167)
T1 construct: domain: IgV domain; monomer in solution; biotin-labelled where captured by streptavidin; also called biotin-hPD-1-his
T1 sequence (Q15116 other isoform, or with tags, fused parts or gaps limits assumed): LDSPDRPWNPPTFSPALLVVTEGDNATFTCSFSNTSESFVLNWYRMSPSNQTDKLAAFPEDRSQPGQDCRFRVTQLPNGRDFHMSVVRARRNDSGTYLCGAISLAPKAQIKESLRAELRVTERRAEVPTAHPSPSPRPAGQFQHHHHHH
Test: ELISA, PD-1-his on anti-his
Kindly state pEC50 for each of the entries shown.
Worth noting: pEC50 values are minus log10 of concentrations stated in mol/L.

Input line: Please give the documented pEC50 of 38B2 (antibody, V domains shown, 24H9 derivative, IgG; also called 780_54; hPD1 Ab (38B2)) VH: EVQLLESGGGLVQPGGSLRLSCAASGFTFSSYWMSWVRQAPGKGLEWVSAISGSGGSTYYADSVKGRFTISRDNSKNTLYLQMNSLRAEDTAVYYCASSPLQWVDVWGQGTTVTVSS VL: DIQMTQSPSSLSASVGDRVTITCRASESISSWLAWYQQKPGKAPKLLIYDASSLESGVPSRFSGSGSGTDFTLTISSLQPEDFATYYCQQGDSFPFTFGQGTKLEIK
Output line: 10.22

Input line: Please give the documented pEC50 of 31B1 (antibody, V domains shown, also called 780_38; 33B1 and 31B2 (apparent misprints)) VH: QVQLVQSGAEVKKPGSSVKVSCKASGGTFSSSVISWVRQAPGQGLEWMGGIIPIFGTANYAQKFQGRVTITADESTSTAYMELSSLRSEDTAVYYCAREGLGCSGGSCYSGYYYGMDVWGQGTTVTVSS VL: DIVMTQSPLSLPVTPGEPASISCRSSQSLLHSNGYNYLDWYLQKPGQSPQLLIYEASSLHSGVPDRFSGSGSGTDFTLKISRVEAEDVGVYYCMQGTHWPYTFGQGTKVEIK
Output line: 9.86

Input line: Please give the documented pEC50 of 33C4 (antibody, V domains shown, also called 780_39) VH: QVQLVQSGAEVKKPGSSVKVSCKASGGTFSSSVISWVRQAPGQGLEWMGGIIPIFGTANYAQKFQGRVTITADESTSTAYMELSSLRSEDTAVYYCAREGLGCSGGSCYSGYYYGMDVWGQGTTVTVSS VL: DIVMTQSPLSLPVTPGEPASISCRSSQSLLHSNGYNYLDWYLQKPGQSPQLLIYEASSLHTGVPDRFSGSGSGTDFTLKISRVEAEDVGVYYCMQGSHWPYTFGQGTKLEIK
Output line: 9.85

Input line: Please give the documented pEC50 of 38A6 (antibody, V domains shown, also called 780_46) VH: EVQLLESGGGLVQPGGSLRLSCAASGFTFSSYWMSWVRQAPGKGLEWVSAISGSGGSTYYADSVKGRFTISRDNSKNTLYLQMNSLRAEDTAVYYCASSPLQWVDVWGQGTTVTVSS VL: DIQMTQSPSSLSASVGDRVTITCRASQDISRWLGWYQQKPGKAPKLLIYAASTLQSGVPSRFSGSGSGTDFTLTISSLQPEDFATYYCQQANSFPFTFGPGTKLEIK
Output line: 10.05
